# systemName: TNKS1 (Homo sapiens, UniProt O95271)
# Sequence (O95271 whole entry): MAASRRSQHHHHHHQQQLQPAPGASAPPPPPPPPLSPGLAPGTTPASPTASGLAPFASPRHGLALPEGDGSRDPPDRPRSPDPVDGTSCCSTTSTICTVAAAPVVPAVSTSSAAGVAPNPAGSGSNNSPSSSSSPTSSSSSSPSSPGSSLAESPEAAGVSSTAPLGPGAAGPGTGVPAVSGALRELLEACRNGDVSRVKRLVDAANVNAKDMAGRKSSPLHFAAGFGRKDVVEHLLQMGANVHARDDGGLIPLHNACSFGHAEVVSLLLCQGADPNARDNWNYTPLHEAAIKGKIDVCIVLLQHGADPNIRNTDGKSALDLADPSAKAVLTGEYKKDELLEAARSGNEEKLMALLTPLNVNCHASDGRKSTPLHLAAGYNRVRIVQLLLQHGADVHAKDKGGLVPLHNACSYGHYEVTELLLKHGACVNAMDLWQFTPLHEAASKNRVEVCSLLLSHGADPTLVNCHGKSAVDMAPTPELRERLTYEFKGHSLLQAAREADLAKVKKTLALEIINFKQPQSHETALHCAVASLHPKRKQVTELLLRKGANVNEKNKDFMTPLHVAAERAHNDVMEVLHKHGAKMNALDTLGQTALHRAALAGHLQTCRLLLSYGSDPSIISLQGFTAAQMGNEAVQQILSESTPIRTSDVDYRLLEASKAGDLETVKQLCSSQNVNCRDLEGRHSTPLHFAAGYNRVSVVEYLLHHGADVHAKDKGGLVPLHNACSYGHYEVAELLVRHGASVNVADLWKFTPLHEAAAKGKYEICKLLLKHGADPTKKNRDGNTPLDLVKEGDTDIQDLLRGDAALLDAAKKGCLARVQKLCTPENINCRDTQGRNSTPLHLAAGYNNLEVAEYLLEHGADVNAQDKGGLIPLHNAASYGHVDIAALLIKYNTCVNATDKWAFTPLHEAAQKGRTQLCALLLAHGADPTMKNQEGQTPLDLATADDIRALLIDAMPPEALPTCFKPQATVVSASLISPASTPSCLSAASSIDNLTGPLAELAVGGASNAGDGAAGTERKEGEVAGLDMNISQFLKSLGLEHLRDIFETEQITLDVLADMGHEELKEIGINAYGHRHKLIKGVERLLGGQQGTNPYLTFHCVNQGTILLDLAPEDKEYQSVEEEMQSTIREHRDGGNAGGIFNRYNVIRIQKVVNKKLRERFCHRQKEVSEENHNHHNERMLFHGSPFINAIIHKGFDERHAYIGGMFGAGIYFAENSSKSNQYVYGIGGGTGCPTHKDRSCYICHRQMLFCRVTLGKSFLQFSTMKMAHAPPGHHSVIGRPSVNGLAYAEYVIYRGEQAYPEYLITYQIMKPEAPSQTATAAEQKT
# experimentDescription: Modified TNKS1 Assay 2 (auto-parsylation, [3H]-NAD+ SPA)
# Format: biochemical
# testSettings: 6 nM TNKS1, 96 well
pIC50: −log10 of the molar value.
observedProperty: pIC50

I: O=C(Nc1ccc(NC(=O)c2[nH]cnc2C(=O)NC2CC2)cc1)c1cc(F)c(F)cc1Cl [Example 51]
II: CN(C)CCNC(=O)c1nc[nH]c1C(=O)Nc1ccc(NC(=O)c2ccc(F)cc2Cl)cc1 [Example 22]
III: O=C(Nc1ccc(NC(=O)c2nc[nH]c2C(=O)NCCN2CCCCC2)cc1OC(F)(F)F)c1ccc(F)cc1Cl [Example 293]
Which order do these items fall in when sorted by pIC50 from largest to smallest? Order the labels as requested and give them as your answer.
II, I, III
(II: 8.00, I: 7.70, III: 7.10)
